molecules and their reported Kinetics koff
assay target: IGF2 (Homo sapiens, UniProt P01344)
Sequence (P01344 25-91): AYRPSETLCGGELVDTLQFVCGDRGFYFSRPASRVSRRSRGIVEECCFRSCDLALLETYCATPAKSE
method description: SPR (Biacore T200) of recombinant IGF2R domain 11 mutants on immobilised biotinylated IGF2
Type: binding
Design: purchased GroPep
measurement context: Table 3; 25° C., HBS-EP pH 7.4
Please provide the amount together with its unit, number first.

- molecule: "AB3 P1597H K1631W: domain 11 AB3 + P1597H, K1631W (protein) MKSNEHDDCQVTNPSTGHLFDLSSLSGRAGFTAAYSKSGVVYMSICGENENCPPGVGACFGQTRISVGKANKRLRYVDQVLQLVYKDGSHCPSKSGLSYKSVISFVCRPEAGPTNRPMLISLDWQTCTLFFSWHTPLACEQATECSV"
  Kinetics koff: "0.3478 s⁻¹"

Kindly consider the entry below.
Fill in the blank: the reported Kinetics koff of AB3 P1597H HI^23D: domain 11 AB3 + P1597H + HI loop of clone 23D (HFQS) (protein) MKSNEHDDCQVTNPSTGHLFDLSSLSGRAGFTAAYSKSGVVYMSICGENENCPPGVGACFGQTRISVGKANKRLRYVDQVLQLVYKDGSHCPSKSGLSYKSVISFVCRPEAGPTNRPMLISLHFQSCTLFFSWHTPLACEQATECSV is ____.
0.012 s⁻¹
